For each entry below, report its normalized RNA/DNA level without ligand (log10) value.
B1: library; a variant is named by its letters at N, in order (parent)
chain: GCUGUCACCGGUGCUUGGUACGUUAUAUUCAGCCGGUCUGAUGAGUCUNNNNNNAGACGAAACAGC

- Variants of: B1
- assay-details: normalized RNA/DNA level without ligand (relative to sTRSVctl = 100) (log10 (% of sTRSVctl)); HEK293T overexpressing SLC46A1; higher = less ribozyme self-cleavage, higher mRNA level
- experimental-context: without (6R,S)-folinic acid; ligand present: no
Give bare numbers.

[
  {
    "mutant-name": "ACUUCU",
    "quantitative-result": 2.03
  }
]

Parameters: items (list). Returns: normalized RNA/DNA level without ligand (log10) for each item.
1. ACGACA
2. GUUUAG

1. 2.01
2. 1.97

Parameters: items (list). Returns: normalized RNA/DNA level without ligand (log10) for each item.
1. UCUCGG
2. UACGGC

1. 2.03
2. 2.05
